The reported numbers originate from patent US12037343B2.

format: physicochemical; conditions: 6 month, 25° C./60% RH
Assay Metric: Water content by Karl Fischer method (%)

molecule="O=C(NCc1c(F)cc(F)cc1F)c1cn2c(c(O)c1=O)C(=O)N1[C@H]3CC[C@H](C3)O[C@@H]1C2 [Form HN-1]" endpoint_value=3.8

###

type: physicochemical; conditions: 6 month, 40° C./75% RH
Assay Metric: Water content by Karl Fischer method (%)

compound="O=C(NCc1c(F)cc(F)cc1F)c1cn2c(c(O)c1=O)C(=O)N1[C@H]3CC[C@H](C3)O[C@@H]1C2 [Form HN-1]" endpoint_value=3.8

###

Assay type: physicochemical
Conditions: 5 month, 25° C./60% RH
Description: The stability of sample was tested by storing the samples at 40° C./75% relative humidity (RH) and 25° C./60% RH for 6 months. The stability of samples was tested by PXRD, HPLC and water content was measured by Karl Fischer method.
Assay Metric: Water content by Karl Fischer method (%)

molecule="O=C(NCc1c(F)cc(F)cc1F)c1cn2c(c(O)c1=O)C(=O)N1[C@H]3CC[C@H](C3)O[C@@H]1C2 [Form HN-1]" endpoint_value=3.9

###

Format: physicochemical
Details: 4 month, 25° C./60% RH
Procedure: The stability of sample was tested by storing the samples at 40° C./75% relative humidity (RH) and 25° C./60% RH for 6 months. The stability of samples was tested by PXRD, HPLC and water content was measured by Karl Fischer method.
Assay Metric: Water content by Karl Fischer method (%)

molecule="O=C(NCc1c(F)cc(F)cc1F)c1cn2c(c(O)c1=O)C(=O)N1[C@H]3CC[C@H](C3)O[C@@H]1C2 [Form HN-1]" quantity_unit=% endpoint_value=3.7

###

type: physicochemical; details: 5 month, 40° C./75% RH
Assay Metric: Water content by Karl Fischer method

molecule="O=C(NCc1c(F)cc(F)cc1F)c1cn2c(c(O)c1=O)C(=O)N1[C@H]3CC[C@H](C3)O[C@@H]1C2 [Form HN-1]" endpoint_value=3.9%
